molecular target: BCL-XL (Homo sapiens, UniProt Q07817); construct: endogenous in cells; host or cells: MOLT-4; test: BCL-XL degradation assay, western blot in MOLT-4 cells, 16 h; format: cell-based; settings: western blot, MOLT-4 cells, 16 h; read-out: Bcl-xL WB in MOLT-4 degradation 16 h: Average Dmax %
Sequence (Q07817 whole entry): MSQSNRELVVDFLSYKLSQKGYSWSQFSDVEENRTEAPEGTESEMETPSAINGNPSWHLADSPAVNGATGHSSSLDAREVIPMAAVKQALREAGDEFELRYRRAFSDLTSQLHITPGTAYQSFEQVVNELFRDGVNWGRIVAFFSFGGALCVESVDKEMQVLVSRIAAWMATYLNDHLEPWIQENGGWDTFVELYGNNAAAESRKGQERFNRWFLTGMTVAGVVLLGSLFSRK
attribute-measured: Dmax

Example entries begin here.
| molecule | target-entity | recorded-value |
| --- | --- | --- |
| Cc1ncsc1-c1ccc([C@H](C)NC(=O)[C@@H]2C[C@@H](O)CN2C(=O)[C@@H](NC(=O)C[C@H]2CC[C@H](C(=O)N3CCN(CC[C@H](CSc4ccccc4)Nc4ccc(S(=O)(=O)NC(=O)c5ccc(N6CCN(CC7=C(c8ccc(Cl)cc8)CCC(C)(C)C7)CC6)cc5)cc4S(=O)(=O)C(F)(F)F)CC3)CC2)C(C)(C)C)cc1 [I-390] | BCL-XL (Homo sapiens, UniProt Q07817) | > 75% |
| Cc1ncsc1-c1ccc(CNC(=O)[C@@H]2C[C@@H](O)CN2C(=O)[C@@H](NC(=O)C2(F)CC2)C(C)(C)C)c(OCCCCCCCCC(=O)N(C)CC#Cc2ccc(OCCCc3sc(N4CCc5cccc(C(=O)Nc6nc7ccccc7s6)c5C4)nc3C(=O)O)c(F)c2)c1 [I-386] | BCL-XL (Homo sapiens, UniProt Q07817) | > 75% |
| Cc1cc(N(C)c2ccc(-c3cnn(CC4CCCCC4)c3C)c(C(=O)NS(=O)(=O)CCCCCOc3cc(-c4scnc4C)ccc3CNC(=O)[C@@H]3C[C@@H](O)CN3C(=O)[C@@H](NC(=O)C3(F)CC3)C(C)(C)C)n2)nnc1Nc1nc2ccccc2s1 [I-188] | BCL-XL (Homo sapiens, UniProt Q07817) | 50 to 75% |
| Cc1ncsc1-c1ccc(CNC(=O)[C@@H]2C[C@@H](O)CN2C(=O)[C@H](c2cc(OCCCCCCCCC(=O)N(C)CC#Cc3ccc(OCCCc4ccc(N5CCc6cccc(C(=O)Nc7nc8ccccc8s7)c6C5)nc4C(=O)O)c(F)c3)no2)C(C)C)cc1 [I-172] | BCL-XL (Homo sapiens, UniProt Q07817) | > 75% |

# input molecule: Cc1ncsc1-c1ccc(CNC(=O)[C@@H]2C[C@@H](O)CN2C(=O)[C@@H](NC(=O)C2(F)CC2)C(C)(C)C)c(OCCCCCC(=O)N(C)CC#Cc2cccc(F)c2OCCCc2sc(N3CCc4cccc(C(=O)Nc5nc6ccccc6s5)c4C3)nc2C(=O)O)c1 [I-19] ; wanted: its Dmax < 50%

What does the data say about its Dmax? Entry: C#Cc1ccc([C@H](CO)NC(=O)[C@@H]2C[C@@H](O)CN2C(=O)[C@@H](NC(=O)CCc2ccc(S(=O)(=O)NC(=O)c3nc(N(C)c4cc(C)c(Nc5nc6ccccc6s5)nn4)ccc3-c3cnn(CC4CCCCC4)c3C)cc2)C(C)(C)C)cc1 [I-186] > 75%

For the molecule Cc1ncsc1-c1ccc(CNC(=O)[C@@H]2C[C@@H](O)CN2C(=O)[C@@H](NC(=O)CCCCCC(=O)N2CCN(CC[C@H](CSc3ccccc3)Nc3ccc(S(=O)(=O)NC(=O)c4ccc(N5CCN(CC6=C(c7ccc(Cl)cc7)CCC(C)(C)C6)CC5)cc4)cc3S(=O)(=O)C(F)(F)F)CC2)C(C)(C)C)cc1 [I-389] , what Dmax is on record? > 75%

Sample Cc1cc([C@H](C(=O)N2C[C@H](O)C[C@H]2C(=O)NCc2ccc(-c3scnc3C)cc2OCCCCCCNC(=O)c2nc(N3CCc4cccc(C(=O)Nc5nc6ccccc6s5)c4C3)ccc2-c2cnn(CC3CCCCC3)c2C)C(C)C)on1 [I-197] — what was its Dmax? > 75%

The measurements presented in this section are drawn from patent US20250197387A1.
